Each entry below carries its recorded half-life.
EXPERIMENTAL_PROTOCOL: in vivo
ASSAY_CONDITIONS: NIH-III, mouse, in vivo, ip, 78.3 mg/kg

{"columns": ["COMPOUND_SMILES", "half-life, min"],
 "data": [
  ["[O-][n+]1nc(CCCN2CCOCC2)[n+]([O-])c2cc3c(cc21)CCC3", 16.1],
  ["[O-][n+]1nc(CCCN2CCOCC2)nc2cc3c(cc21)CCC3", 20.1],
  ["O=C(O)CCc1nc2cc3c(cc2[n+]([O-])n1)CCC3", 35.5]
]}

* * *

EXPERIMENTAL_PROTOCOL: in vivo
ASSAY_CONDITIONS: NIH-III nude, mouse, in vivo, iv, 78.3 mg/kg
Each entry below carries its recorded half-life.

{"columns": ["COMPOUND", "half-life, min"],
 "data": [
  ["[O-][n+]1nc(CCCN2CCOCC2)nc2cc3c(cc21)CCC3 [M14]", 31.5],
  ["[O-][n+]1nc(CCCN2CCOCC2)[n+]([O-])c2cc3c(cc21)CCC3 [SN30000]", 23.9],
  ["O=C(O)CCc1nc2cc3c(cc2[n+]([O-])n1)CCC3 [M18]", 75]
]}
